Assayed Target: Aminopeptidase N (Homo sapiens, UniProt P15144)
Sequence (P15144 whole entry): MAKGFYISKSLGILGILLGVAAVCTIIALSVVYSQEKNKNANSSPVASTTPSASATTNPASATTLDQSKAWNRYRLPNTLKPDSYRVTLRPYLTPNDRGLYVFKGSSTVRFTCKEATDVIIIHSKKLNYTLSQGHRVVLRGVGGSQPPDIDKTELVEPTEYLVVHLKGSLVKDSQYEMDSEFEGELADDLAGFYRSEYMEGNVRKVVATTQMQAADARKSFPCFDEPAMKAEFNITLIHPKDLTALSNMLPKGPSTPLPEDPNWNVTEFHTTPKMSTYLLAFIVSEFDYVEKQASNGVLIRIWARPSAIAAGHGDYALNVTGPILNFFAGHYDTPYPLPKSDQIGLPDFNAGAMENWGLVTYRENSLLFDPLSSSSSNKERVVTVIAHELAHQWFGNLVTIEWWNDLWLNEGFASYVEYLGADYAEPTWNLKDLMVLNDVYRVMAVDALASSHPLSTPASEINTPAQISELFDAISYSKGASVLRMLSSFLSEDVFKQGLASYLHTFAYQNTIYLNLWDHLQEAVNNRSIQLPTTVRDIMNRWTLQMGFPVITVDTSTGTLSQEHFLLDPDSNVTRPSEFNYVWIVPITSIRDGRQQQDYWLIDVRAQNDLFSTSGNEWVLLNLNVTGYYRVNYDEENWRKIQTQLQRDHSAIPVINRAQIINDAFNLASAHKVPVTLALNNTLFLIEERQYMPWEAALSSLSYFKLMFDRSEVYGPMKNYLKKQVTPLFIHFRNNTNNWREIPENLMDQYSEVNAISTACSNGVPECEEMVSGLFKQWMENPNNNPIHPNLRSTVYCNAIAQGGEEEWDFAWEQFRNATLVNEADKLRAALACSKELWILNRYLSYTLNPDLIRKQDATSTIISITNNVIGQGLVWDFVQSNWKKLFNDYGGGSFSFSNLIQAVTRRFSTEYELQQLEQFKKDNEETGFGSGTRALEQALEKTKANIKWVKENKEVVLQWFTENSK
Test Summary: Compound was tested for binding affinity towards microsomal aminopeptidase; Kis was reported
# Ki values compiled below
Please state the figure in µM; there is no need to write the unit.

[[record]]
molecule = "CC(C)C[C@H](N)C(=O)CC(Cc1ccccc1)C(=O)O (some centres not stated)"
reported = 79


// next entry
Readout Ki for CC(C)C[C@H](N)C(=O)CC(C)C(=O)O (some centres not stated) , test system Aminopeptidase N (Homo sapiens, UniProt P15144), was 660

###

Assayed Target: Aminopeptidase N (Homo sapiens)
Test Summary: Compound was tested for binding affinity towards microsomal aminopeptidase
Measure: Ki (µM)
Please state the figure in µM; there is no need to write the unit.

Previously resolved entries follow.
[[record]]
molecule = "CC(C)CCNC(=O)[C@@H](O)[C@H](N)CC(C)C"
measure = "Ki"
result_units = "µM"
reported = 24

[[record]]
molecule = "CC(C)CCNC(=O)C(=O)[C@@H](N)CC(C)C"
measure = "Ki"
result_units = "µM"
reported = 10.5

[[record]]
molecule = "CC(=O)[C@@H](N)CC(C)C"
measure = "Ki"
result_units = "µM"
reported = 430

[[record]]
molecule = "CC(C)CCNC(=O)C(=O)C(N)Cc1ccccc1 (stereo unspecified)"
measure = "Ki"
result_units = "µM"
reported = 2.5

[[record]]
molecule = "CC(C)CCNC(=O)[C@@H](O)[C@H](N)Cc1ccccc1"
measure = "Ki"
result_units = "µM"
reported = 20


// next entry
For reference, reported Ki for `CC(C)CCNC(=O)C(=O)[C@H](N)CC(C)C` stands at 18
